Where do these numbers come from? They come from patent US20110256132A1.

- System: T1, mature myostatin (recombinant, dimeric) (mouse polyprotein used for in-house …, UniProt O08689 268-376)
- T1 sequence: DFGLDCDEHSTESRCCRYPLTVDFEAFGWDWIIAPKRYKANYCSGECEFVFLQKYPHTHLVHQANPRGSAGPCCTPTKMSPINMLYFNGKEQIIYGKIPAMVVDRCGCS
- Experimental protocol: cell-based or functional assay
Mark TRUE only when Mean IC50, A204 in vitro activity assay (5 nM myostatin) stays strictly below 4 nM. Values equal to the cut-off are FALSE.

{"Binder": "H2L2-C91S_V102S (antibody, human IgG1, kappa, name in Kabat numbering, V domains shown) VH: QVQLVQSGAEVKKPGASVKVSCKASGYSFTGYFMHWVRQAPGQGLEWMGNIYPYNGVSNYNQRFKARVTMTTDTSTSTAYMELRSLRSDDTAVYYCARRYYYGTGPADWYFDSWGQGTLVTVSS VL: DIQMTQSPSSLSASVGDRVTITCKASQDINSYLSWFQQKPGKAPKSLIYRANRLVDGVPSKFSGSGSGTDYTLTISSLQPEDFATYYCLQSDEFPLTFGQGTKLEIKR", "Class label": "FALSE"}
{"Binder": "H2L2-C91S_V102N (antibody, human IgG1, kappa, name in Kabat numbering, V domains shown) VH: QVQLVQSGAEVKKPGASVKVSCKASGYSFTGYFMHWVRQAPGQGLEWMGNIYPYNGVSNYNQRFKARVTMTTDTSTSTAYMELRSLRSDDTAVYYCARRYYYGTGPADWYFDNWGQGTLVTVSS VL: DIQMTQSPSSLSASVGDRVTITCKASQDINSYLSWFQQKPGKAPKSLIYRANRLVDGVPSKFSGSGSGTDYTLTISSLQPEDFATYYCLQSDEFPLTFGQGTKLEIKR", "Class label": "FALSE"}
{"Binder": "H2L2-C91S_P100B_I (antibody, human IgG1, kappa, V domains shown) VH: QVQLVQSGAEVKKPGASVKVSCKASGYSFTGYFMHWVRQAPGQGLEWMGNIYPYNGVSNYNQRFKARVTMTTDTSTSTAYMELRSLRSDDTAVYYCARRYYYGTGIADWYFDVWGQGTLVTVSS VL: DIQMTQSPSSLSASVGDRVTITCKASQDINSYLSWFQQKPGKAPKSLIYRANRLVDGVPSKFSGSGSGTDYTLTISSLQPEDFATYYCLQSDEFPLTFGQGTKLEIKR", "Class label": "FALSE"}
{"Binder": "H2L2-C91S_P100B_F (antibody, human IgG1, kappa, V domains shown) VH: QVQLVQSGAEVKKPGASVKVSCKASGYSFTGYFMHWVRQAPGQGLEWMGNIYPYNGVSNYNQRFKARVTMTTDTSTSTAYMELRSLRSDDTAVYYCARRYYYGTGFADWYFDVWGQGTLVTVSS VL: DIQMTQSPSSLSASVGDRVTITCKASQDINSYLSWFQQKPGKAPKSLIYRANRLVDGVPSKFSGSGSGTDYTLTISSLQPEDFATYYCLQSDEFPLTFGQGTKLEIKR", "Class label": "FALSE"}
{"Binder": "H2L2 C91S (H2L2-C91S) (antibody, human IgG1, kappa, V domains shown, Humanised, human IgG1/kappa; also called base molecule; base H2L2-C91S) VH: QVQLVQSGAEVKKPGASVKVSCKASGYSFTGYFMHWVRQAPGQGLEWMGNIYPYNGVSNYNQRFKARVTMTTDTSTSTAYMELRSLRSDDTAVYYCARRYYYGTGPADWYFDVWGQGTLVTVSS VL: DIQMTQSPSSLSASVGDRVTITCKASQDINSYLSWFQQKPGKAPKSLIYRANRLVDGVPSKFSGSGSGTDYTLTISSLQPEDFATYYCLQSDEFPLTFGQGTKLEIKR", "Class label": "FALSE"}
{"Binder": "10B3 chimera (antibody, human IgG1, kappa, V domains shown, Mouse variable regions on human IgG1/kappa wild type constant regions; also called HCLC; HcLc) VH: EVQLQQSGPELVKPGASVKISCKASGYSFTGYFMHWVKQSHGNILDWIGNIYPYNGVSNYNQRFKAKATLTVDKSSSTAYMELRSLTSEDSAVYYCARRYYYGTGPADWYFDVWGTGTLVTVSS VL: DIKMTQSPSSMYASLRERVTITCKASQDINSYLSWFQQKPGKSPKTLIYRANRLVDGVPSRFSGSGSGQDYSLTISSLEYEDMGIYYCLQCDEFPLTFGAGTKLELKR", "Class label": "TRUE"}
